Read-out: Monocyte Chemoattractant Protein-1 (MCP1), CCL2 (gene 6347)
Experiment: BSK_hDFCGF_MCP1: BioMAP Diversity Plus: hDFCGF Assay for Monocyte Chemoattractant Protein-1 (MCP1) Biomarker Activity (AID 2284285)
Conditions: primary human foreskin fibroblasts
Active and inactive are the calls of the source. The calls were made as follows: active = hit-call score of the fitted dose curve at least 0.9, where 1 is the maximum; inactive = score below 0.9.
VALUE_KIND: AC50

1) FC(F)(I)C(F)(F)C(F)(F)C(F)(F)C(F)(F)C(F)(F)I ... 5.13 µM (active) [middle of 5 runs]
2) C[C@@H]1C[C@H]2[C@@H]3CCC4=CC(=O)C=C[C@]4(C)[C@@]3(F)[C@@H](O)C[C@]2(C)[C@@]1(O)C(=O)COP(=O)(O)O ... inactive
3) NCC(F)(F)C(F)(F)C(F)(F)C(F)(F)C(F)(F)C(F)(F)C(F)(F)F ... inactive
4) C=C(C)C(=O)OCCC(F)(F)C(F)(F)C(F)(F)C(F)(F)C(F)(F)C(F)(F)F ... inactive

====

Test: CCTE_Deisenroth_5AR_NBTE_donor: CCTE's 5alpha-reductase NanoBRET Target Engagement Assay […], Deisenroth Lab (AID 2284319)
Details: actives raise or lower the signal
Activity calls are given as the source filed them. Rule for the calls: active = hit-call score of the fitted dose curve at least 0.9, where 1 is the maximum; inactive = score below 0.9.
// one of 1 = active, -1 = inactive, no free text

**Q:** Field: outcome | Entry: O=[N+]([O-])c1ccc(O)cc1
**A:** -1

**Q:** Kindly provide the recorded test outcome for the following molecule: CCCCCCCCOC(=O)CCCCCCCCC(=O)OCCCCCCCC
**A:** -1

**Q:** Write down the call the test reported for this molecule. Item: COCC(C)O (centres undefined)
**A:** -1

**Q:** Look up the recorded call for CCCCCCCCCCCCCC[N+](C)(C)C in this test.
**A:** 1

====

Read-out: Thyroid Hormone Responsive (THRSP), THRSP (gene 7069)
Experiment: LTEA_HepaRG_THRSP: Life Technologies and Expression Analysis (LTEA) Assay for Thyroid Hormone Responsive (THRSP) using HepaRG (AID 2283536)
Conditions: mRNA level, 48 h; actives raise or lower the signal
The source made the active and inactive calls. How the source made its calls: active means hit-call score of the fitted dose curve at least 0.9, where 1 is the maximum; inactive means score below 0.9.
Returns: one label drawn from active, inactive

1. C[C@@H]1C[C@H]2[C@@H]3CCC4=CC(=O)C=C[C@]4(C)[C@@]3(F)[C@@H](O)C[C@]2(C)[C@@]1(O)C(=O)COP(=O)(O)O ... inactive
2. CC(=O)NC1(c2cccc(F)c2)CCN(CC[C@@]2(c3ccc(Cl)c(Cl)c3)CN(c3ccccc3)C(=O)CO2)CC1 ... active
3. COC(=O)CCCCC(=O)OC ... inactive

# input for lookup
**Q:** Write down the call the test reported for this molecule. Item: OCCC(F)(F)C(F)(F)C(F)(F)C(F)(F)C(F)(F)C(F)(F)C(F)(F)C(F)(F)F
**A:** inactive

====

Assay: Tanguay_ZF_120hpf_TR_legacy: (Legacy) Oregon State University Tanguay Lab 120 Hour Post-fertilization zebrafish Assay for Touch Response (AID 2283667)
Inconclusive results are not listed. Activity calls are given as the source filed them. The calls were made as follows: active = hit-call score of the fitted dose curve at least 0.9, where 1 is the maximum; inconclusive = response in the unintended direction; inactive = score below 0.9.
Answer with one of the outcomes given here: active, inactive

Example entries begin here.
1) CCCOC(=O)c1ccc(O)cc1 ... active
2) CC(C)(C)CC(C)(C)c1ccc(O)c(-n2nc3ccccc3n2)c1 ... inactive
3) CC(O)CO (centres undefined) ... inactive
4) O=C(O)c1ccccc1C(c1ccc(O)cc1)c1ccc(O)cc1 ... inactive
5) C#C[C@]1(O)CC[C@H]2[C@@H]3CCC4=CC(=O)CC[C@@H]4[C@H]3CC[C@@]21C ... inactive

**Q:** I'd appreciate the recorded outcome for CC(=O)CC(C)(C)O from this test.
**A:** inactive

**Q:** For this compound, state the assay outcome: CCCCC(CC)COC(=O)CCCCC(=O)OCC(CC)CCCC (centres undefined)
**A:** inactive

**Q:** Fill in: this test's call for COc1ccc([N+](=O)[O-])cc1N is ___
**A:** inactive

**Q:** Which outcome did this test record for the compound Cc1cc(CCN2CCN(c3nsc4ccccc34)CC2)cc2c1NC(=O)CC2(C)C ?
**A:** active

Attribution: PubChem BioAssay (EPA / NIEHS)
